System tested: Delta-type opioid receptor (Mus musculus)
Sequence (P32300 whole entry): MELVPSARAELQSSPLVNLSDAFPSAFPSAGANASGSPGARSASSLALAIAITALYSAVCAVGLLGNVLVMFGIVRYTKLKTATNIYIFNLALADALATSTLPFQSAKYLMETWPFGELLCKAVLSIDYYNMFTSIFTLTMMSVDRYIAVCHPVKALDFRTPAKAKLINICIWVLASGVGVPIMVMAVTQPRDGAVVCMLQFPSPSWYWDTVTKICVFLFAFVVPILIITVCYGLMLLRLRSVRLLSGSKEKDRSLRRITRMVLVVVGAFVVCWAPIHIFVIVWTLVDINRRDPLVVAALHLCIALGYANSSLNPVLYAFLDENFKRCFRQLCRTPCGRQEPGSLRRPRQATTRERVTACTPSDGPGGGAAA
Test name: Ki value determined against Opioid receptor delta 1 using [3H]DPDPE at the Kd concentration 2.1 nM
Below, each entry is listed with its recorded Ki.

Compound: C=CCCCCN1CC[C@]2(C)c3cc(O)ccc3CC1[C@@H]2C
System tested: Delta-type opioid receptor (Mus musculus)
Ki, nM: 56
//
Compound: C=CCN1CC[C@]2(C)c3cc(O)ccc3CC1[C@@H]2C
System tested: Delta-type opioid receptor (Mus musculus)
Ki, nM: 5.5
//
Compound: C[C@H]1C2Cc3ccc(O)cc3[C@@]1(C)CCN2CCCCCCC#N
System tested: Delta-type opioid receptor (Mus musculus)
Ki, nM: 350
//
Compound: C[C@H]1C2Cc3ccc(O)cc3[C@@]1(C)CCN2CCCC#N
System tested: Delta-type opioid receptor (Mus musculus)
Ki, nM: 23
//
Compound: C[C@H]1C2Cc3ccc(O)cc3[C@@]1(C)CCN2CC#N
System tested: Delta-type opioid receptor (Mus musculus)
Ki, nM: 590
//
Compound: C[C@H]1C2Cc3ccc(O)cc3[C@@]1(C)CCN2CCCCC#N
System tested: Delta-type opioid receptor (Mus musculus)
Ki, nM: 160
//
Compound: C=CCCCN1CC[C@]2(C)c3cc(O)ccc3CC1[C@@H]2C
System tested: Delta-type opioid receptor (Mus musculus)
Ki, nM: 60
//
Compound: C#CCCN1CC[C@]2(C)c3cc(O)ccc3CC1[C@@H]2C
System tested: Delta-type opioid receptor (Mus musculus)
Ki, nM: 10
//
Compound: CC#CCN1CC[C@]2(C)c3cc(O)ccc3CC1[C@@H]2C (stereo in doubt; 12)
System tested: Delta-type opioid receptor (Mus musculus)
Ki, nM: 60
//
Compound: C#CCCCN1CC[C@]2(C)c3cc(O)ccc3CC1[C@@H]2C
System tested: Delta-type opioid receptor (Mus musculus)
Ki, nM: 140
//
Compound: C[C@H]1C2Cc3ccc(O)cc3[C@@]1(C)CCN2CCC#N
System tested: Delta-type opioid receptor (Mus musculus)
Ki, nM: 9.8
//
Compound: C[C@H]1C2Cc3ccc(O)cc3[C@@]1(C)CCN2CCCCCC#N
System tested: Delta-type opioid receptor (Mus musculus)
Ki, nM: 220
//
Compound: C=CCCN1CC[C@]2(C)c3cc(O)ccc3CC1[C@@H]2C
System tested: Delta-type opioid receptor (Mus musculus)
Ki, nM: 21
